Experiment: PSAC antagonists in infected red cells, primary screen, cell-based, P. falciparum Indochina, OD700, 1 h (AID 1154)
Settings: P. falciparum Indochina infected RBC osmotic lysis, higher = more signal, called active from +8 up or from −8 down
Use 1 as the dividing line for z-score, with the line itself on the Criterion met side and lower values as Criterion not met.

INSERT INTO assay_data (molecule, discrete_label) VALUES
  ('O=C1O[C@H](c2ccccc2)[C@H](c2ccccc2)N2[C@H]1[C@@H](C(=O)Nc1nc3ccccc3s1)[C@]1(C(=O)Nc3ccccc31)[C@H]2c1ccc(O)cc1', 'Criterion met'),
  ('COc1cc2c(cc1O)C(C)N(Cc1cccc(OC(F)(F)F)c1)CC2 (stereo not given)', 'Criterion met'),
  ('O=C1C2C=CC(C(O)c3ccc(B(O)O)cc3)N(Nc3ccccc3)C2C(=O)N1c1ccccc1 (stereo not given)', 'Criterion met'),
  ('COC(=O)c1ccc(C(O)C2C=CC3C(=O)N(C)C(=O)C3N2NC(=O)OC(C)(C)C)o1 (stereo not given)', 'Criterion not met'),
  ('O=C1c2ccccc2[C@@]2(Cc3ccccc3N(Cc3ccccc3)C2=O)[C@H](c2ccc(CO)cc2)N1C1CCCCC1', 'Criterion not met');

====

z-score for assorted molecules
Experiment: MM1S myeloma cell viability, profiling panel, resazurin fluorescence, basal, 24 h, PK04 Diversity Set (AID 1174);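 also: MM1S multiple myeloma cell line; test concentration not given here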
Details: higher = more signal, called active from +8 up or from −8 down
readout.name: z-score

INSERT INTO results (molecule, value_reported) VALUES
  ('O=C1C2C=CC(C(O)c3ccc(B(O)O)cc3)N(Nc3ccccc3)C2C(=O)N1c1ccccc1 (stereo unspecified)', -1.35),
  ('COC(=O)[C@@]1(Cc2ccccc2)N=C(c2ccc(OCCCO)cc2)O[C@H]1c1ccccc1N=[N+]=[N-]', -2.58),
  ('COc1cc(CO)ccc1OC(C)=O', -0.779),
  ('COc1c(C)cc(-c2cc3c(c(-c4ccc(Oc5ccccc5)cc4)n2)[Si](C(C)C)(C(C)C)OC3)cc1C', -0.391),
  ('[N-]=[N+]=NCc1ccccc1C[C@]1(C(=O)NCCN2CCOCC2)N=C(c2ccc(OCCCO)cc2)O[C@H]1c1ccccc1N=[N+]=[N-]', -0.739),
  ('Cc1ccc(S[C@]2(C(=O)O)CC(=O)N(C3Cc4ccccc4C3)[C@@H]2c2ccc(CO)cc2I)cc1', -1.95),
  ('O=C1C[C@]2(c3ccc([N+](=O)[O-])cc3)C(=O)N(CC(F)(F)F)c3cc(CO)ccc3[C@H]2N1CC12CC3CC(CC(C3)C1)C2', -1.2),
  ('CC(C)C(O)C1C=CC2C(=O)N(c3ccccc3)C(=O)C2N1Nc1ccc(C#N)cc1 (stereo unspecified)', -1.66),
  ('CCOC(=O)C[C@H]1[C@H](OC(=O)c2ccc(-c3ccccc3)cc2)[C@@H](NC(=O)c2ccc(-c3ccccc3)cc2)c2cc(OCCCO)ccc2N1C(=O)Cc1ccc(OC)cc1', -0.26),
  ('CN1C(=O)C2C=CC(C(O)c3ccccn3)N(Nc3ccccc3)C2C1=O (stereo unspecified)', -0.467),
  ('CCCNC(=O)[C@@H]1c2ccccc2C(=O)N(Cc2ccccc2)[C@H]1c1ccc(CO)cc1', 0.0254),
  ('CCOC(=O)C1=C[C@@H](CC)N(S(=O)(=O)c2ccc(C)cc2)[C@H]1c1ccccc1', -0.666),
  ('O=c1oc(-c2ccccc2)nc2cc(Br)ccc12', 0.0202),
  ('C=CC[C@@H](OC(=O)Nc1ccc(OC)cc1)c1ccc(O)c2ccccc12', -6.13),
  ('NC(=O)NCC#Cc1ccc2c(c1)[C@]1(C(=O)N2)[C@H](C(=O)NC[C@H](O)c2ccccc2)[C@H]2C(=O)O[C@H](c3ccccc3)[C@H](c3ccccc3)N2[C@@H]1c1ccc(O)cc1', -0.027),
  ('C=CCOC(=O)[C@@H]1[C@H]2C(=O)O[C@H](c3ccccc3)[C@H](c3ccccc3)N2[C@H](c2ccc(OCCOC(=O)[C@@H]3C[C@@H]4C(=O)NCC(=O)N4[C@@H]3c3cccc(OCCO)c3)cc2)[C@@]12C(=O)Nc1ccc(I)cc12', 0.132);

====

Assay: E. coli DRC41 culture turbidity changes, primary screen, E. coli filamentation inducer project, strain DRC41, OD650, 48 h (AID 1152);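 also: E. coli MC1000 strain DRC41 lacking acrAB efflux pump and sulA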
Conditions: E. coli DRC41 (acrAB sulA), higher = more signal, called active from +8 up or from −8 down
Tag: yes if measured z-score is not below 0.5, no if it is.

INSERT INTO measurements (molecule, discrete_label) VALUES
  ('COCCOC(=O)N1C(=O)[C@@]2(c3cc(C#CCC(C(=O)OC)C(=O)OC)ccc31)[C@H](c1ccccc1OCCO)N1[C@H](c3ccccc3)[C@H](c3ccccc3)OC(=O)[C@H]1[C@@H]2C(=O)N1CCc2cc(OC)c(OC)cc2C1', 'yes'),
  ('COc1ccc([Si](C)(C)[C@@H]2[C@@H](CC(=O)N(CCO)Cc3ccccc3)O[C@]3(C(=O)N(C)c4ccccc43)[C@H]2C)cc1', 'no'),
  ('Cc1cc(C)cc(N2C(=O)CS(=O)(=O)C2c2cccc([N+](=O)[O-])c2)c1 (configuration not stated)', 'no'),
  ('Cc1ccc([C@H]2C(C(=O)O)=C[C@@H](C)N2S(=O)(=O)c2ccc(C)cc2)cc1', 'no'),
  ('[N-]=[N+]=NCc1ccccc1C[C@]1(C(=O)NCC(O)CO)N=C(c2ccc(OCCCO)cc2)O[C@H]1c1ccccc1N=[N+]=[N-] (some centres not stated)', 'yes'),
  ('O=C1OCCC/C=C\[C@H]2OC34C=CCN(Cn5nnc6ccccc65)C(=O)[C@H]3N(CCCCCO)C(=O)[C@@H]4C12 (some centres not stated)', 'no'),
  ('CN1C=C(C(=O)OCCS(C)(=O)=O)C(C(=O)OCCS(C)(=O)=O)=CC(CCCO)=CC1C1CC1 (configuration not stated)', 'yes');

====

Target: NADPH oxidase 5 (Homo sapiens) (UniProt Q96PH1)
Sequence (Q96PH1 whole entry, looked up): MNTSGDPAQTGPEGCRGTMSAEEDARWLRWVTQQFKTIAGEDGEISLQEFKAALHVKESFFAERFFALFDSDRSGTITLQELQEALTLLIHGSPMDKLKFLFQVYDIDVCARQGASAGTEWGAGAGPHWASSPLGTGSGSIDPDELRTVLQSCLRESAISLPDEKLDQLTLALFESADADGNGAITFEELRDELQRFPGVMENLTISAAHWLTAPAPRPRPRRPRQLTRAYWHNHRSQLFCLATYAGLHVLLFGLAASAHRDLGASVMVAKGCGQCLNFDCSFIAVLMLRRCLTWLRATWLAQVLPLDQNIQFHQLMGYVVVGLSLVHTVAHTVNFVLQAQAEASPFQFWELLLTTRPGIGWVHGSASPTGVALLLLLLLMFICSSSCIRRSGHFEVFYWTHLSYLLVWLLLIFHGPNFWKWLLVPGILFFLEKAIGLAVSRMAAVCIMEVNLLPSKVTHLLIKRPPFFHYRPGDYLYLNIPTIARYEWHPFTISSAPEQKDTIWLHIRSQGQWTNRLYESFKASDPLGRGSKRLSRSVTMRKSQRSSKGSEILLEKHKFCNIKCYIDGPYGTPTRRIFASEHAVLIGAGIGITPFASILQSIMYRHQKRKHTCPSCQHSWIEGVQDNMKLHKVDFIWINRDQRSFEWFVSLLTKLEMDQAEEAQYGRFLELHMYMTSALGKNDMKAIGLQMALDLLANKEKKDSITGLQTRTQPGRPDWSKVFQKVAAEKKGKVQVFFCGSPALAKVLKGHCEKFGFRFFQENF
Experiment: NOX5-dependent H2O2 signal modulators, primary screen, NOX inhibitor project, cell-based, HEK293-NOX5, Amplex Red fluorescence (AID 1161)
Conditions: HEK293-NOX5, ionomycin, 45 min, higher = more signal
readout.name: z-score

INSERT INTO results (compound, readout_name, value_reported) VALUES
  ('CCOC(=O)C[C@H]1[C@H](OC(=O)c2ccc(-c3ccccc3)cc2)[C@@H](NC(=O)Cc2ccc(OC)cc2)c2cc(OCCCO)ccc2N1C(=O)c1ccc2ccccc2n1', 'z-score', 1.73),
  ('O=C1OCC=C[C@H]2OC34C=CCN(c5ccc(Cl)cc5)C(=O)[C@H]3N(CCCCCCO)C(=O)[C@@H]4[C@@H]12 (some centres undefined)', 'z-score', 1.96),
  ('COCCOC(=O)N1C(=O)[C@@]2(c3cc(C#CC4=CCCCC4)ccc31)[C@H](C(=O)N1CCc3cc(OC)c(OC)cc3C1)[C@H]1C(=O)O[C@H](c3ccccc3)[C@H](c3ccccc3)N1[C@@H]2c1ccccc1OCCO', 'z-score', 1.99),
  ('O=C1N(CCS(=O)(=O)c2ccccc2)c2ccccc2C[C@@]12COC(c1ccc(OCCCO)cc1)=N2', 'z-score', -0.312);

====

Measured composite z-score accompanies every entry in the list below.
Target: Albumin (Bos taurus) (UniProt P02769)
Sequence (P02769 whole entry, looked up): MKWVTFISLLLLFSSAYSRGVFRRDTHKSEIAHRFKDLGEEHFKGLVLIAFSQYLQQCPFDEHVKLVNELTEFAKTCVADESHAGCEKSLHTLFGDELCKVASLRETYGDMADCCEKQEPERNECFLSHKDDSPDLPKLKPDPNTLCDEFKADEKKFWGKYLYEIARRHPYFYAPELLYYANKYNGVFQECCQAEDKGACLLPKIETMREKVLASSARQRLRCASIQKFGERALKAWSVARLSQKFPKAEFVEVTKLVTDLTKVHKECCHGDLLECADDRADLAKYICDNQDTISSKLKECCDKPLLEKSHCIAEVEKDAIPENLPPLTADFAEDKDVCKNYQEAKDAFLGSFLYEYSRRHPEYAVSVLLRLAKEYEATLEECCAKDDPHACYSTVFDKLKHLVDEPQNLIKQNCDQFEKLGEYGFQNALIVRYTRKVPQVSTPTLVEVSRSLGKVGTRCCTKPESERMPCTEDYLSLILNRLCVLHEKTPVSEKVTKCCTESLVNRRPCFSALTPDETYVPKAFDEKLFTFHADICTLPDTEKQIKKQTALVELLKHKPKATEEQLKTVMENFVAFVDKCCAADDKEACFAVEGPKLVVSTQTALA
Test: bovine serum albumin binders on microarray, profiling panel, artefact control for SMM control protein annotation, biochemical, small-molecule microarray, Alexa647 label, 635/667 nm fluorescence (AID 1118);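 also: score merges 667 nm emission intensity and signal-to-noise per printed compound spot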
Conditions: BSA-A647 binding, fluorescence 635 nm, higher = more signal
readout.name: composite z-score

INSERT INTO results (compound, system_name, readout_name, value_reported) VALUES
  ('COc1ccc(C(O)C2C=CC3C(=O)N(c4ccccc4)C(=O)C3N2Nc2ccc([N+](=O)[O-])cc2)cc1OCc1ccccc1 (centres undefined)', 'Albumin (Bos taurus) (UniProt P02769)', 'composite z-score', 0.927),
  ('C[C@]1(C(=O)NCc2ccccc2)c2ccccc2C(=O)N(Cc2cc(F)cc(C(F)(F)F)c2)[C@H]1c1ccc(CO)cc1', 'Albumin (Bos taurus) (UniProt P02769)', 'composite z-score', -0.35),
  ('COCCCNC(=O)[C@@]1(CCC(=O)OC(C)(C)C)N=C(c2ccc(OCCCO)cc2)O[C@H]1c1ccccc1CN=[N+]=[N-]', 'Albumin (Bos taurus) (UniProt P02769)', 'composite z-score', 0.642),
  ('O=C1OCC=C[C@H]2OC34C=CCN(c5ccc6ccccc6c5)C(=O)[C@H]3N(CCCO)C(=O)[C@@H]4[C@@H]12 (some centres undefined)', 'Albumin (Bos taurus) (UniProt P02769)', 'composite z-score', 0.314);

====

Experiment: basal RPMI8226 mitochondrial membrane potential changes, profiling panel, cell-based, JC-1 fluorescence, 24 h, 100 nL compound (AID 1169); also: test concentration not given here
Settings: RPMI8226 myeloma, JC-1 mitochondrial potential fluorescence, higher = more signal
As shown below, each of these molecules has a reported z-score value.
readout.name: z-score

INSERT INTO assay_data (molecule, value_reported) VALUES
  ('CC(C)OC(=O)CC(=O)CC(O)c1ccc(C#N)cc1 (stereo not drawn)', -0.0971),
  ('CC(C)C(O)C1C=CC2C(=O)N(c3ccccc3)C(=O)C2N1Nc1ccc(C#N)cc1 (stereo not drawn)', -0.775),
  ('CCOC(=O)[C@H]1C[C@H]2O[C@@]23C[C@H]1C(=O)N1CCCC1[C@@H]3O[Si](C)(C)C(C)(C)C (stereo partly drawn)', -0.366),
  ('COc1ccc([Si](C)(C)[C@@H]2[C@@H](CCn3cc([C@H](O)c4ccccc4)nn3)O[C@]3(C(=O)N(Cc4ccc(N5C(=O)c6cccc7cccc5c67)cc4)c4ccccc43)[C@H]2C)cc1', -0.964),
  ('CCCCC(CC)C(O)C1C=CC2C(=O)N(c3ccccc3)C(=O)C2N1Nc1ccccc1 (stereo not drawn)', -0.48),
  ('CC(C)(C)N1CC=CC23O[C@@H]4C=CCOC(=O)[C@@H]4[C@H]2C(=O)N(CCCCCO)[C@@H]3C1=O (stereo partly drawn)', 0.828),
  ('CC(C)NC(=O)[C@@]1(Cc2ccccc2I)c2ccccc2C(=O)N(Cc2ccccc2)[C@H]1c1ccc(CO)cc1', -0.638),
  ('COc1ccccc1CN1C(=O)c2ccccc2[C@@H](C(=O)NCCN2CCOCC2)[C@@H]1c1ccc(CO)cc1', 0.711);
